Reference source: PubChem BioAssay (NCI)

tested on: OVCAR-3 ovarian; test: NCI tumour cell line growth inhibition, 48 h; in the data active means GI50 below about 0.43 µM; inactive means the rest
Pick from active, inactive when you respond.

These recorded examples may help you get a feel for the data.
Lookup: Which result was noted for this compound in the test: NCCNc1ccc(NCCN)c2c1C(=O)c1c(O)ccc(O)c1C2=O
Found: active

Lookup: Which result was noted for this compound in the test: Cc1cc2oc(=O)cc(OC/C=C3/CCC(=O)O3)c2cc1C
Found: inactive

Lookup: Which result was noted for this compound in the test: N#Cc1ccc(C(=O)c2cnn(-c3ccc(F)cc3)c2N)cc1
Found: inactive

Lookup: Which result was noted for this compound in the test: Oc1ccccc1/C=N\Nc1ccccc1
Found: inactive

Lookup: Which result was noted for this compound in the test: COc1ccc(Cl)cc1Nc1nc(C(F)(F)F)ccc1C(=O)N/N=C/c1ccccc1Cl
Found: inactive

Further cases:
Lookup: Which result was noted for this compound in the test: N#Cc1ccc(O)c(C2=NCC(c3ccc(-c4ccccc4)cc3)O2)c1 (stereo unspecified)
Found: active
